Attribute: SPOT peptide array binding signal intensity
Biological target: SpSla1-D3
Assay: SPOT peptide array binding signal intensity (averaged, normalized) (arbitrary units (background-subtracted, floor 0; scale differs between SH3 domains)); higher = stronger binding of the SH3 domain to the peptide
Reply briefly: the number, and no unit.

Worked examples, 3 binders total:
binder | recorded-number
MAMRPIPPLPTESEY | 28
NLPKRKPPKLQGPFS | 1
RRTRLRPPTPLSQLL | 8

Could you now consider this next binder?
### Prompt Consider the binder shown here: `NIKVLLNPKLGKPVK` What is its recorded SPOT peptide array binding signal intensity?
### Response 4
